Biological target: T1, TNFR1 (Homo sapiens, UniProt P19438)
T1 chain: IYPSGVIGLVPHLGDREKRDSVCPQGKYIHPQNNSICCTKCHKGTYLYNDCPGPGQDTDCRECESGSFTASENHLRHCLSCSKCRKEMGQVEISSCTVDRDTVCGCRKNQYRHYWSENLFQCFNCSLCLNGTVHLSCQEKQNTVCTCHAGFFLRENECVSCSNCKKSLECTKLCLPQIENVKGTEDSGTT
Assay: yeast display SC50
propertyName: apparent Kd (screen) (nM)

# annotated cases, reported apparent Kd (screen) shown
binder | measurementUnit | apparent Kd (screen)
K72L (designed binder) MTLQELLREEALRRAEAEAFRYALELLAEKFPEQKEYLLDLAEEIESQIRSLSGVDVEDVRKFLDKEWAWVLELLAEHPAELAEVEAARAARLAELRAEVEAKVAA | nM | 0.79
A28P (designed binder) MTLQELLREEALRRAEAEAFRYALELLPEKFPEQKEYLLDLAEEIESQIRSLSGVDVEDVRKFLDKEWAWVKELLAEHPAELAEVEAARAARLAELRAEVEAKVAA | nM | 2.05
L82N (designed binder) MTLQELLREEALRRAEAEAFRYALELLAEKFPEQKEYLLDLAEEIESQIRSLSGVDVEDVRKFLDKEWAWVKELLAEHPAENAEVEAARAARLAELRAEVEAKVAA | nM | 1.69
D40N (designed binder) MTLQELLREEALRRAEAEAFRYALELLAEKFPEQKEYLLNLAEEIESQIRSLSGVDVEDVRKFLDKEWAWVKELLAEHPAELAEVEAARAARLAELRAEVEAKVAA | nM | 2.48
E84S (designed binder) MTLQELLREEALRRAEAEAFRYALELLAEKFPEQKEYLLDLAEEIESQIRSLSGVDVEDVRKFLDKEWAWVKELLAEHPAELASVEAARAARLAELRAEVEAKVAA | nM | 0.653
V85M (designed binder) MTLQELLREEALRRAEAEAFRYALELLAEKFPEQKEYLLDLAEEIESQIRSLSGVDVEDVRKFLDKEWAWVKELLAEHPAELAEMEAARAARLAELRAEVEAKVAA | nM | 0.49

[P] R14C (designed binder) MTLQELLREEALRCAEAEAFRYALELLAEKFPEQKEYLLDLAEEIESQIRSLSGVDVEDVRKFLDKEWAWVKELLAEHPAELAEVEAARAARLAELRAEVEAKVAA
[Q] L6E (designed binder) MTLQEELREEALRRAEAEAFRYALELLAEKFPEQKEYLLDLAEEIESQIRSLSGVDVEDVRKFLDKEWAWVKELLAEHPAELAEVEAARAARLAELRAEVEAKVAA
Determine, for P and Q , which has the greater value of apparent Kd (screen). Mark your selection by writing its label. Q
(Q: 8.56 nM, P: 0.539 nM)
